biological target: human cannabinoid receptor 1 (huCB1), full length, expressed on cells (human, UniProt P21554 1-472); test: cell-based or functional assay
Sequence (P21554 whole entry): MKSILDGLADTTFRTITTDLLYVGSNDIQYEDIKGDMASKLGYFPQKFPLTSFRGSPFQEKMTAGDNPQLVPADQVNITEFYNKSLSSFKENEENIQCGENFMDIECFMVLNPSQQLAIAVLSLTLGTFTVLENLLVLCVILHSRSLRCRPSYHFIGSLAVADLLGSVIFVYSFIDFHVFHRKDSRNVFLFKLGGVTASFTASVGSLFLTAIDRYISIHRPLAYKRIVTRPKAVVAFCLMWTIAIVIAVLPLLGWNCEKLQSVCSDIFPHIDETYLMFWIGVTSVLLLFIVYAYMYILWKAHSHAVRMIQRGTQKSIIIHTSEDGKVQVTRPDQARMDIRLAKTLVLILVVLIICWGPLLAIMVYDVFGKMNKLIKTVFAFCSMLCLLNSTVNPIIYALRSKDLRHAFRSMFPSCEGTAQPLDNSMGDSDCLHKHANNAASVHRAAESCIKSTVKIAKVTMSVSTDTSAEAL
Please provide measured IC50, nM (CP agonist) for the entries that follow.
Numbers only, in nM.

Reference set, count: 4
| binder | result-number |
| --- | --- |
| LIBC528116-1 (antibody, V domains shown, Expressed as IgG1 SEFL2 mAb; also called 37940-4) VH: QVQLQESGPGLVKPSQTLSLTCTVSGGSIRRGGDYWAWIRQHPGKGLEWIGHVYYTGSTNYNPRFKDRATISVNTYKNQFSLKLSSVTAADTAVYYCARNYDTVTGYSYYYYGMDVWGQGTTVTVSS VL: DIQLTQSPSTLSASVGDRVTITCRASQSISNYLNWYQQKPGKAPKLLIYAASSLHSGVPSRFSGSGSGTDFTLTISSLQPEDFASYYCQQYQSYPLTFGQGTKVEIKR | 1.8 |
| LIBC527814-1 (antibody, V domains shown, Expressed as IgG1 SEFL2 mAb) VH: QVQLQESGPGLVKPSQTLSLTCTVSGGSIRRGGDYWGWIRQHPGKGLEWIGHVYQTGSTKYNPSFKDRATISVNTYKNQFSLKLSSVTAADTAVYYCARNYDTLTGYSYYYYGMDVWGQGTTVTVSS VL: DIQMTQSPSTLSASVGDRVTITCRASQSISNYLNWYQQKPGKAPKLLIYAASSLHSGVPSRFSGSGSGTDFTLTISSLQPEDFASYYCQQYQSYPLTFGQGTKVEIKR | 2.1 |
| LIBC527997-1 (antibody, V domains shown, Expressed as IgG1 SEFL2 mAb) VH: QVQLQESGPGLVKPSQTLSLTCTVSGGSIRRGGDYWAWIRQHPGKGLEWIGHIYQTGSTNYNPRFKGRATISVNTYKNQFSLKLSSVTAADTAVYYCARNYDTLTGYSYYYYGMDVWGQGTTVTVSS VL: DIQMTQSPSSLSASVGDRVTITCRASQSISNYLNWYQQKPGKAPKLLIYAASSLHSGVPSRFSGSGSGTDFTLTISSLQPEDFASYYCQQYQSYPLTFGQGTKVEIKR | 2.5 |
| LIBC527919-1 (antibody, V domains shown, Expressed as IgG1 SEFL2 mAb) VH: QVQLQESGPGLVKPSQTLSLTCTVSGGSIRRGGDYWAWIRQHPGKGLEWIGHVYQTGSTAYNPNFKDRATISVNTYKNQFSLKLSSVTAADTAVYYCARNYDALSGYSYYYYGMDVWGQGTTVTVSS VL: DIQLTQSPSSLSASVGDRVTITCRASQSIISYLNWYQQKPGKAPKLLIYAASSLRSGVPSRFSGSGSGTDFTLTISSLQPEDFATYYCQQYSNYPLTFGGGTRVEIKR | 3 |

Kindly consider the entry below.
Item: LIBC523661-1 (antibody, V domains shown, Expressed as IgG1 SEFL2 mAb) VH: QVQLQESGPGLVKPSQTLSLTCTVSGGSIRRGGDYWSWIRQHPGKGLEWIGHIYYEGSTKYNPSFKGRATISVNTYKNQFSLKLSSVTAADTAVYYCARDYDPVTGHSYYYYGMDVWGQGTTVTVSS VL: DIVMTQSPLSLPVTPGEPASISCRSSQSLLTSSGYNYVDWYLQKPGQSPQLLIYQGSNRASGVPDRFSGSGSGTDFTLKISRVEAEDVGVYYCRQARAIPRTFGQGTKVEIKR | IC50, nM (CP agonist): 3.9

Data origin: patent US20250277029A1
